B1: FBF1 (parent)
chain: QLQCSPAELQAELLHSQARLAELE

- Variants of: B1
- TEST_METHOD_NOTES: protein stability index of a GFP-peptide fusion (GPS, HEK-293T) (PSI 1-6); higher = more stable;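 also: lentivirally expressed fusions sorted by FACS into six bins by GFP to DsRed ratio, PSI derived from sequencing read proportions per bin multiplied by bin number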
- CONDITION_LABEL: c terminus: a fixed tail appended
Some variants, each annotated with its measured protein stability index.
METRIC_NAME: protein stability index

VARIANT_KEY	RESULT_NUMBER
R19A	2.6
Q10E	3.95
S16H	4.46
P6G	2.24
A21S	3.31
A7C	2.74
L9N	4.92
A18D	4.03
P6E	2.6
P6V	2.44
L20T	4.66
L14D	4.88
S16T	2.95
L13D	5.39
E12R	3.59
Q1F	2.06
L2I	2.82
A7K	2.9
S16A	2.88
Q17Y	3.52
Q1V	2.41
A18F	2.82
Q3H	2.6
E12A	2.47
L13N	4.96
L20S	4.7
E24P	3.18
L20H	4.05
C4R	3.94
A21M	2.31
A11C	3.89
E12C	3.05
C4M	3.82
E8P	3.86
Q17W	3.16
P6Y	2.14
Q1M	2.64
E24N	3.29
E8T	2.41
C4Q	3.92
C4V	2.96
A11M	2.01
S5Q	3.69
S5T	3.85
S5E	3.25
P6M	2.31
Q17T	3.97
H15G	4.04
R19L	1.79
Q10S	3.7
Q3M	2.59
L14R	3.33
L2V	3.68
Q17I	3.07
Q1W	2.8
E22T	2.34
P6I	2.44
Q3N	2.81
A11H	3.38
L23E	4.48
C4H	3.15
S5W	2.64
L14N	2.85
E22H	2.39
E24H	3.56
Q1Y	2.6
L14S	3.67
E12I	2.57
E24Y	2.36
L9H	4.18
Q10M	2.29
L2Y	3.35
E24I	3.06
E24T	3.54
Q17N	4.25
P6R	3.1
E8M	2.06
E24W	2.47
Q10N	3.54
L14P	4.8
C4F	3.14
S16Y	3.49
A11E	4.26
E12S	2.94
A18N	3.12
L9M	4.3
Q10C	2.45
E22W	2.76
S16G	4.86
Q3R	3.21
Q10F	1.79
